Entry source: ChEMBL document CHEMBL1141401

Parameter 'readout' = Ki; parameter 'system' = D(4) dopamine receptor (Homo sapiens, UniProt P21917).
Sequence (P21917 whole entry): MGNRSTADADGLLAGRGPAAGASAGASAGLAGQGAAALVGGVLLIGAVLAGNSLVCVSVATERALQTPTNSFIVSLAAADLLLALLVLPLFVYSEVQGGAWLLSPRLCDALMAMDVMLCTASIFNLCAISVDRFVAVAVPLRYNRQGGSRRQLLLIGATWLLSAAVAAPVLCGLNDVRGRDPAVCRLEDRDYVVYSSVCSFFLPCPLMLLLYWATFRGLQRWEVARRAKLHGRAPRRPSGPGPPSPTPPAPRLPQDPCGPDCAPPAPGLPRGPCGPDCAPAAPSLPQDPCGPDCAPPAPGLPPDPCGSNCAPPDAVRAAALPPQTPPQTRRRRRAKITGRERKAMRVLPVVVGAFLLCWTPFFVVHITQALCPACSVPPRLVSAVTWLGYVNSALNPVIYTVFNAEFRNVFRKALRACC
Endpoint: Ki (µM)

INSERT INTO measurements (smiles_repr, obs_value) VALUES
  ('COc1ccc(Cn2nnc(C(=O)NCCCCCN3CCN(c4ccccc4OC)CC3)c2C)cc1', 0.269),
  ('Cc1c(C(=O)NCCCCN2CCN(c3cccc(Cl)c3Cl)CC2)nnn1Cc1ccccc1', 0.282),
  ('O=C(NCCCCN1CCN(c2ccccc2Cl)CC1)c1ccc(-c2ccccc2)cc1', 0.24),
  ('COc1ccccc1N1CCN(CCCCNC(=O)c2ccc(-c3ccc([18F])nc3)cc2)CC1', 0.034),
  ('COc1ccccc1N1CCN(CCCCNC(=O)c2cc3cc(Br)ccc3[nH]2)CC1', 0.0158),
  ('COc1ccccc1N1CCN(CCCCNC(=O)c2ccc(-c3cccc([18F])n3)cc2)CC1', 0.028),
  ('CCCc1c(C(=O)NCCCCCN2CCN(c3ccccc3OC)CC2)nnn1Cc1ccccc1Br', 0.0398);

====

biological target: D(3) dopamine receptor (Homo sapiens, UniProt P35462); experiment: biochemical
Sequence (P35462 whole entry): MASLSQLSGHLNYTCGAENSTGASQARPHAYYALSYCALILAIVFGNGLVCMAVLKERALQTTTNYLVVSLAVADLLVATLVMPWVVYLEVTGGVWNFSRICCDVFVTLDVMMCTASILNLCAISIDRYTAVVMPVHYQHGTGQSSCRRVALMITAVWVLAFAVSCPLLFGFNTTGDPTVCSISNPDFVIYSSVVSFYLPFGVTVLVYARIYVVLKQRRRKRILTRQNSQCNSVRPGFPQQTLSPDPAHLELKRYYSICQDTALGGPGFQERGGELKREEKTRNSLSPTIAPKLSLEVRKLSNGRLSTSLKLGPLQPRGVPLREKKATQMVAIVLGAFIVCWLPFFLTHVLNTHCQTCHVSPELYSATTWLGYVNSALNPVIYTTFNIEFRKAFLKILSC
Description: Displacement of [3H]spiperone from human dopamine D3 expressed in CHO cell membrane
Endpoint: Ki (nM)

INSERT INTO results (smiles_repr, quantity_unit, obs_value) VALUES
  ('COc1ccccc1N1CCN(CCCCCNC(=O)c2nnn(Cc3ccccc3)c2C)CC1', 'nM', 15.8),
  ('O=C(NCCCCN1CCN(c2cccc(Cl)c2Cl)CC1)c1cc2ccccc2[nH]1', 'nM', 0.661),
  ('Cc1c(C(=O)NCCCCCN2CCN(c3cccc(Cl)c3Cl)CC2)nnn1Cc1ccccc1', 'nM', 8.51);

====

target: D(3) dopamine receptor (Homo sapiens, UniProt P35462); test: biochemical
Endpoint: Ki

INSERT INTO assay_data (smiles_repr, target_or_test_system, obs_value) VALUES
  ('c1ccc(C2CCN(Cc3cnn(-c4ccccc4)c3)CC2)cc1', 'D(3) dopamine receptor (Homo sapiens, UniProt P35462)', '33.1 nM'),
  ('COc1ccc(Cn2nnc(C(=O)NCCCCN3CCN(c4ccccc4OC)CC3)c2C)cc1', 'D(3) dopamine receptor (Homo sapiens, UniProt P35462)', '28.8 nM'),
  ('COc1ccccc1N1CCN(CCCCNC(=O)c2ccc(-c3ccc([18F])nc3)cc2)CC1', 'D(3) dopamine receptor (Homo sapiens, UniProt P35462)', '0.45 nM'),
  ('O=C(NCCCCN1CCN(c2ccccc2Cl)CC1)c1ccc(-c2ccccc2)cc1', 'D(3) dopamine receptor (Homo sapiens, UniProt P35462)', '0.28 nM');
